- Tested on: Serine/threonine-protein kinase PAK 5 (Homo sapiens)
- Experiment: Inhibition of human PAK5 (2 to 719 residues) assessed as enzyme activity at 1 uM using 33P ATP by radioactive filter binding assay
- Parameters: scale not given: the % may be the effect or the level left
Endpoint: Activity (%)

1) CCCCc1cc(-c2c[nH]c3ncc(-c4cnn(C5CCNCC5)c4)cc23)nc(N)n1: -38
2) CCCCc1cc(-c2c[nH]c3ncccc23)nc(N)n1: 6

P = CCc1cc(-c2c[nH]c3ncc(-c4cnn(C5CCNCC5)c4)cc23)nc(N)n1
Q = Nc1nccc(-c2c[nH]c3ncccc23)n1
Q: Which has the smaller recorded Activity, P or Q ? Output the label that corresponds to your choice.
Ans: Q

* * *

- Tested on: cAMP-dependent protein kinase catalytic subunit alpha (Homo sapiens) (UniProt P17612)
- Experiment: Inhibition of human PKA alpha (2 to 351 residues) assessed as enzyme activity at 1 uM using 33P ATP by radioactive filter binding assay
- Design: scale not given: the % may be the effect or the level left
Endpoint: Activity (%)

See these solved cases before continuing.
1. CCc1cc(-c2c[nH]c3ncc(-c4cnn(C5CCNCC5)c4)cc23)nc(N)n1: -38
2. CCCCc1cc(-c2c[nH]c3ncccc23)nc(N)n1: -54

A = CCCCc1cc(-c2c[nH]c3ncc(-c4cnn(C5CCNCC5)c4)cc23)nc(N)n1
B = Nc1nccc(-c2c[nH]c3ncccc23)n1 [MERIOLIN 1]
Q: Which numeric Activity is bigger, that of A or that of B ? Output the label that corresponds to your choice.
Ans: A
(A: -42%, B: -66%)

* * *

- Tested on: Calcium/calmodulin-dependent protein kinase type 1 (Homo sapiens)
- Experiment: Inhibition of human CAMK1 (2 to 369 residues) assessed as enzyme activity at 1 uM using 33P ATP by radioactive filter binding assay
- Design: scale not given: the % may be the effect or the level left
Endpoint: Activity (%)

1) CCCCc1cc(-c2c[nH]c3ncccc23)nc(N)n1: -3
2) CCc1cc(-c2c[nH]c3ncc(-c4cnn(C5CCNCC5)c4)cc23)nc(N)n1: -49

A = CCCCc1cc(-c2c[nH]c3ncc(-c4cnn(C5CCNCC5)c4)cc23)nc(N)n1
B = Nc1nccc(-c2c[nH]c3ncccc23)n1 [MERIOLIN 1]
Q: Which has the smaller recorded Activity, A or B ? Output the label that corresponds to your choice.
Ans: A
(A: -60%, B: -6%)

* * *

- Tested on: Mitogen-activated protein kinase 3 (Homo sapiens)
- Experiment: Inhibition of human MAPK3 (2 to 544 residues) assessed as enzyme activity at 1 uM using 33P ATP by radioactive filter binding assay
- Set-up: scale not given: the % may be the effect or the level left
Endpoint: Activity (%)

See these solved cases before continuing.
1) Nc1nccc(-c2c[nH]c3ncccc23)n1: -77
2) CCCCc1cc(-c2c[nH]c3ncc(-c4cnn(C5CCNCC5)c4)cc23)nc(N)n1: -97

1 = CCc1cc(-c2c[nH]c3ncc(-c4cnn(C5CCNCC5)c4)cc23)nc(N)n1
2 = CCCCc1cc(-c2c[nH]c3ncccc23)nc(N)n1
Q: Which numeric Activity is bigger, that of 1 or that of 2 ? Output the label that corresponds to your choice.
Ans: 2

* * *

- Tested on: Serine/threonine-protein kinase Chk2 (Homo sapiens) (UniProt O96017)
- Sequence (O96017 whole entry, the tested form may be a part): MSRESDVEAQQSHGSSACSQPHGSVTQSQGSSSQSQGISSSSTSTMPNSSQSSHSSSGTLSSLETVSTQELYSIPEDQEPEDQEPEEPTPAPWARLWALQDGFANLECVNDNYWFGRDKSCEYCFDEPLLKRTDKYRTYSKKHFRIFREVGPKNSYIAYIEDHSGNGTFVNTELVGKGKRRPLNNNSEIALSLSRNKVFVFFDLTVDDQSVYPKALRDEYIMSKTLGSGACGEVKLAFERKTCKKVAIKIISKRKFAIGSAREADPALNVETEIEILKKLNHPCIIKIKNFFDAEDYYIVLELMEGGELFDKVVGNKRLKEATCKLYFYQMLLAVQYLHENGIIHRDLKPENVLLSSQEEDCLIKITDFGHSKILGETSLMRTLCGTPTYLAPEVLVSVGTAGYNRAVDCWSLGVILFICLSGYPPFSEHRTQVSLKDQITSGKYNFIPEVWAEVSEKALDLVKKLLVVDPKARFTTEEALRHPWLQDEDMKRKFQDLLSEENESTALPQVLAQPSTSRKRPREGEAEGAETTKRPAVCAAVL
- Experiment: Inhibition of human CHK2 (5 to 543 residues) assessed as enzyme activity at 1 uM using 33P ATP by radioactive filter binding assay
- Set-up: scale not given: the % may be the effect or the level left
Endpoint: Activity (%)

See these solved cases before continuing.
1. CCCCc1cc(-c2c[nH]c3ncccc23)nc(N)n1: -44
2. CCCCc1cc(-c2c[nH]c3ncc(-c4cnn(C5CCNCC5)c4)cc23)nc(N)n1: -92

A = Nc1nccc(-c2c[nH]c3ncccc23)n1
B = CCc1cc(-c2c[nH]c3ncc(-c4cnn(C5CCNCC5)c4)cc23)nc(N)n1
Q: Which has the smaller recorded Activity, A or B ? Output the label that corresponds to your choice.
Ans: B
(B: -81%, A: -37%)

* * *

- Tested on: Serine/threonine-protein kinase Nek6 (Homo sapiens) (UniProt Q9HC98)
- Sequence (Q9HC98 whole entry, the tested form may be a part): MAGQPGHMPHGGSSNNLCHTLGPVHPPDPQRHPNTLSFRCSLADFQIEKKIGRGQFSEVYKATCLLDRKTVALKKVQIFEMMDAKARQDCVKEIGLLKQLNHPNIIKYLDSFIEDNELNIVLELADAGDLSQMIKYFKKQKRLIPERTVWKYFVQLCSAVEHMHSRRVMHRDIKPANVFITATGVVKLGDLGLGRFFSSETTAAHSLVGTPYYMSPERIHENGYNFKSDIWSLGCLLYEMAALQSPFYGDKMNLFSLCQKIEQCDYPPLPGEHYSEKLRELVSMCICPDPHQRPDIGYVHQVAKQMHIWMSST
- Experiment: Inhibition of human NEK6 (8 to 313 residues) assessed as enzyme activity at 1 uM using 33P ATP by radioactive filter binding assay
- Set-up: scale not given: the % may be the effect or the level left
Endpoint: Activity (%)

See these solved cases before continuing.
1. CCc1cc(-c2c[nH]c3ncc(-c4cnn(C5CCNCC5)c4)cc23)nc(N)n1: -4
2. Nc1nccc(-c2c[nH]c3ncccc23)n1 [MERIOLIN 1]: -7

A = CCCCc1cc(-c2c[nH]c3ncccc23)nc(N)n1
B = CCCCc1cc(-c2c[nH]c3ncc(-c4cnn(C5CCNCC5)c4)cc23)nc(N)n1
Q: Which numeric Activity is bigger, that of A or that of B ? Output the label that corresponds to your choice.
Ans: A
(A: -11%, B: -16%)

* * *

- Tested on: Dual specificity mitogen-activated protein kinase kinase 1 (Homo sapiens) (UniProt Q02750)
- Sequence (Q02750 whole entry, the tested form may be a part): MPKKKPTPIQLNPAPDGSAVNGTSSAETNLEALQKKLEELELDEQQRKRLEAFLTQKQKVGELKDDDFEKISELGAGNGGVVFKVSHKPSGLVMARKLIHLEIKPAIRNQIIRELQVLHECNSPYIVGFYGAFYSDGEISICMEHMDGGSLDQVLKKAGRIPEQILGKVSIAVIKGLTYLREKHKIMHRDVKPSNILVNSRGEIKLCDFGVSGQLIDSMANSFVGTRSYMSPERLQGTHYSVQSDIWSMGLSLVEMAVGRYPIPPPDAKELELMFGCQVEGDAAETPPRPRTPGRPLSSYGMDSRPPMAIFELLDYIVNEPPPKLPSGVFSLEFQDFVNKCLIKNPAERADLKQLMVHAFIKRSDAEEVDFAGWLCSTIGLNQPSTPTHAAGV
- Experiment: Inhibition of human MKK1 (2 to 393 residues) assessed as enzyme activity at 1 uM using 33P ATP by radioactive filter binding assay
- Parameters: scale not given: the % may be the effect or the level left
Endpoint: Activity (%)

See these solved cases before continuing.
1. CCc1cc(-c2c[nH]c3ncc(-c4cnn(C5CCNCC5)c4)cc23)nc(N)n1: -77
2. CCCCc1cc(-c2c[nH]c3ncc(-c4cnn(C5CCNCC5)c4)cc23)nc(N)n1: -82

A = Nc1nccc(-c2c[nH]c3ncccc23)n1 [MERIOLIN 1]
B = CCCCc1cc(-c2c[nH]c3ncccc23)nc(N)n1
Q: Which numeric Activity is bigger, that of A or that of B ? Output the label that corresponds to your choice.
Ans: B
(B: -21%, A: -67%)

* * *

- Tested on: Rho-associated protein kinase 2 (Rattus norvegicus) (UniProt Q62868)
- Sequence (Q62868 whole entry, looked up, the tested form may be a part): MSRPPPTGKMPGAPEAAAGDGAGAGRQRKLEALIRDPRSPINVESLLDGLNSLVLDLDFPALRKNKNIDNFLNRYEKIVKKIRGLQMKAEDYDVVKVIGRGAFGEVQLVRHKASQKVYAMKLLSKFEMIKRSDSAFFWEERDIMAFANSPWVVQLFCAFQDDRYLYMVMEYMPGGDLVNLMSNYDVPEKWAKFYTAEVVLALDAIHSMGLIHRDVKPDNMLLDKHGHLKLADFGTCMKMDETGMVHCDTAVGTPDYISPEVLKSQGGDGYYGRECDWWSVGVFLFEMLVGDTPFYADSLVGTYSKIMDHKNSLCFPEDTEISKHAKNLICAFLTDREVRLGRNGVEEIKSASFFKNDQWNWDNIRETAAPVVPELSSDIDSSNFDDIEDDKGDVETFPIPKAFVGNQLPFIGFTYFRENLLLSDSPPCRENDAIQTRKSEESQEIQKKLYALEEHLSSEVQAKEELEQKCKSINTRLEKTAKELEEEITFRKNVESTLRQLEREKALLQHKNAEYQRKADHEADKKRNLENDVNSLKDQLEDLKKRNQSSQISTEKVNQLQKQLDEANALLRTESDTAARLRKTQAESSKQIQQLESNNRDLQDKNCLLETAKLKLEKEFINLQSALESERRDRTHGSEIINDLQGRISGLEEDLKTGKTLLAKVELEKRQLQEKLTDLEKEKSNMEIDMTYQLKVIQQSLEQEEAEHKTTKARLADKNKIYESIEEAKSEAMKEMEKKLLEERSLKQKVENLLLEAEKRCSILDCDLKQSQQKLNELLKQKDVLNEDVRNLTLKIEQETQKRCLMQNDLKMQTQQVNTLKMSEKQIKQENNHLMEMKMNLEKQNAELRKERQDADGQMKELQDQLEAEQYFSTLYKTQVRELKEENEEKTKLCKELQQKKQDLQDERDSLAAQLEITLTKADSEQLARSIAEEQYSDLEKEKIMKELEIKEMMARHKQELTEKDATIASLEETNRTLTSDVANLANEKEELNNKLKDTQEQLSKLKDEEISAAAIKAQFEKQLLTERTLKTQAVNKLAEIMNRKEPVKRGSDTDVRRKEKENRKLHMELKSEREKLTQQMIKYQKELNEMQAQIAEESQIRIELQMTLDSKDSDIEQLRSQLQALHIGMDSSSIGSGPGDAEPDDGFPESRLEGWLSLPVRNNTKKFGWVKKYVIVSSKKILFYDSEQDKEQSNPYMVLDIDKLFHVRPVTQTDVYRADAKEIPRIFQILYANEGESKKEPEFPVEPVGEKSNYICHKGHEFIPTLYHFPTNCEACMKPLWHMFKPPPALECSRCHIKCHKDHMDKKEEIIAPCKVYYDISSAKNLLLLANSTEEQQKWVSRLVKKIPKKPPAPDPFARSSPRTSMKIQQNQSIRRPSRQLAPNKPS
- Experiment: Inhibition of rat ROCK2 (2 to 543 residues) assessed as enzyme activity at 1 uM using 33P ATP by radioactive filter binding assay
- Set-up: scale not given: the % may be the effect or the level left
Endpoint: Activity (%)

1. CCCCc1cc(-c2c[nH]c3ncccc23)nc(N)n1: -93
2. Nc1nccc(-c2c[nH]c3ncccc23)n1 [MERIOLIN 1]: -97
3. CCc1cc(-c2c[nH]c3ncc(-c4cnn(C5CCNCC5)c4)cc23)nc(N)n1: -65
4. CCCCc1cc(-c2c[nH]c3ncc(-c4cnn(C5CCNCC5)c4)cc23)nc(N)n1: -80

* * *

# pIC50 per record follows
- Tested on: UniProt O15530
- Sequence (O15530 whole entry): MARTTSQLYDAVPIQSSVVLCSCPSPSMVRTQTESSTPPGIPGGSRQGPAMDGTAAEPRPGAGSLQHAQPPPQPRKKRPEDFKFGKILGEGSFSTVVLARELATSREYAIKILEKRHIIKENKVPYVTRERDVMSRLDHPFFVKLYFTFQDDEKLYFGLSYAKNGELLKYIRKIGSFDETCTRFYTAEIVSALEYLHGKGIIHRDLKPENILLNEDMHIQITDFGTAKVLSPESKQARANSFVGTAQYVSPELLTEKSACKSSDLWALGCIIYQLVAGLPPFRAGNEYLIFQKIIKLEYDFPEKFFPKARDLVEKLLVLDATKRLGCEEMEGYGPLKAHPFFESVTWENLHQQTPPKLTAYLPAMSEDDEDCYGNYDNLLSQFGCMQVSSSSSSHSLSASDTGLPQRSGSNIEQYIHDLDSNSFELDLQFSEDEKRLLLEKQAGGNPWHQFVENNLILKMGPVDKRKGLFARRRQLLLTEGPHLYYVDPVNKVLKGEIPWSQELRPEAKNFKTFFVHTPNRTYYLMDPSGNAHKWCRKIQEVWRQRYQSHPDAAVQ
- Experiment: Inhibition of PDK1 in human PC3 cells assessed as reduction in AKT Thr308 phosphorylation after 45 mins
- Type: cell-based, PC-3
pIC50: −log10 of the molar value.

1) CCc1cc(-c2c[nH]c3ncc(-c4ccccc4)cc23)nc(N)n1: < 4.52
2) CCc1cc(-c2c[nH]c3ncc(-c4ccco4)cc23)nc(N)n1: 4.55
3) NCCCCc1cc(-c2c[nH]c3ncccc23)nc(N)n1: < 4.52
4) CCc1cc(-c2c[nH]c3ncccc23)nc(N)n1: < 4.52
5) CCc1cc(-c2c[nH]c3ncc(-c4cnn(C5CCNCC5)c4)cc23)nc(N)n1: 4.89
6) CCc1cc(-c2c[nH]c3ncc(-c4ccc(N)nc4)cc23)nc(N)n1: 4.68
7) CCc1cc(-c2c[nH]c3ncc(-c4cnn(CCN(C)C)c4)cc23)nc(N)n1: 4.85
8) NCCCc1cc(-c2c[nH]c3ncccc23)nc(N)n1: < 4.52

Q: I am curious: what pIC50 value has been reported for CCc1cc(-c2c[nH]c3ncc(-c4ccn[nH]4)cc23)nc(N)n1 ?
Ans: 4.59

Q: I am curious: what pIC50 value has been reported for CCc1cc(-c2c[nH]c3ncccc23)ncn1 ?
Ans: < 4.52

Q: I am curious: what pIC50 value has been reported for CCc1cc(-c2c[nH]c3ncc(Br)cc23)nc(N)n1 ?
Ans: < 4.52

Q: I am curious: what pIC50 value has been reported for Nc1nccc(-c2c[nH]c3ncccc23)n1 ?
Ans: < 5.00

Q: I am curious: what pIC50 value has been reported for CCc1cc(-c2c[nH]c3ncc(-c4cnn(CC(C)C)c4)cc23)nc(N)n1 ?
Ans: 5.02
